Cited source for all entries: patent US20210214435A1

pIC50 overview
- Experimental System: human GPVI-Fc (isoform and haplotype not stated) used in the competition ELISA (human) (UniProt Q9HCN6)
- Test Details: Competition ELISA (MSD): human GPVI-Fc preincubated with Fab, then on coated CRP-XL (competitor)
Interpret pIC50 as the negative base-10 log of the concentration measured in mol/L.

Fab #1 comprising a modified heavy chain constant region (Fab, V domains shown) VH: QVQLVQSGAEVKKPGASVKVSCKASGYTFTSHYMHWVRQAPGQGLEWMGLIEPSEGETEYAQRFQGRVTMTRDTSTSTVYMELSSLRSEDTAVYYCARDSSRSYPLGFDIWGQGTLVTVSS VL: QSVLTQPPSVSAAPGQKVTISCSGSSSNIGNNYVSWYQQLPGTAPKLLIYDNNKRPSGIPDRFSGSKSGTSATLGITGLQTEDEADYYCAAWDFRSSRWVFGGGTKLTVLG	7.96
Fab #2 comprising a modified heavy chain constant region (Fab, V domains shown) VH: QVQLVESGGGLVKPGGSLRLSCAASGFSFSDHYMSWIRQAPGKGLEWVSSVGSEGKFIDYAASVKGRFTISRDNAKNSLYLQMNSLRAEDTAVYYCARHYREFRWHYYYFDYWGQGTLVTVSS VL: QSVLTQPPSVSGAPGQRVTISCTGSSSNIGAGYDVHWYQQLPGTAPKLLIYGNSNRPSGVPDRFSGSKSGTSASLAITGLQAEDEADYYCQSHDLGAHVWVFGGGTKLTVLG	8.08
Fab #3 comprising a modified heavy chain constant region (Fab, V domains shown) VH: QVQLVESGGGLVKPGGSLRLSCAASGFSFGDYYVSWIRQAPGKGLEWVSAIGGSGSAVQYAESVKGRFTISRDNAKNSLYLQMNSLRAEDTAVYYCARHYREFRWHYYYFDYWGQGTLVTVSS VL: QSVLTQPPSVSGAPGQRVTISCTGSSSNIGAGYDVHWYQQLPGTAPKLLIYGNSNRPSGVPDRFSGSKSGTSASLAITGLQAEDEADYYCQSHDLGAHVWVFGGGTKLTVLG	8.06
Fab #4 comprising a modified heavy chain constant region (Fab, V domains shown) VH: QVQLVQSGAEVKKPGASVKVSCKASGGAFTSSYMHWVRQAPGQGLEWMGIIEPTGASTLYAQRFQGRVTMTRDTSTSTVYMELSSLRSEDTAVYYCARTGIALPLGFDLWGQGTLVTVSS VL: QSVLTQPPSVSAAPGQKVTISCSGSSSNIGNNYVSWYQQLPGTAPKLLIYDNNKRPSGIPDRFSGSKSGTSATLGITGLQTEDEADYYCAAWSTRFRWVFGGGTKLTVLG	7.88

// moving on: another record for pIC50
Prompt: For the binder shown here, Reference Control Antibody RefFab #1 (humanized GPVI antibody of WO2011073954A2, SANOFI) (Fab, V domains shown) VH: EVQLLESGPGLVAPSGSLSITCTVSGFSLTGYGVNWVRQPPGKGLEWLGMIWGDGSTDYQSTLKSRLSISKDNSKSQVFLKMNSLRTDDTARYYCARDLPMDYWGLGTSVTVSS VL: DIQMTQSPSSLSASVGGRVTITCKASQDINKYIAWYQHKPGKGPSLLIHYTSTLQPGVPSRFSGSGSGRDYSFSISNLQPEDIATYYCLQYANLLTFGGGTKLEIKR , give the reported pIC50.
Completion: 7.97
